From: patent US20030215462A1

Please go through the items and note down their activity at 15 min, 25 µM.
# test_target: UGT1A1 (Homo sapiens)
# Sequence (P22309 26-533): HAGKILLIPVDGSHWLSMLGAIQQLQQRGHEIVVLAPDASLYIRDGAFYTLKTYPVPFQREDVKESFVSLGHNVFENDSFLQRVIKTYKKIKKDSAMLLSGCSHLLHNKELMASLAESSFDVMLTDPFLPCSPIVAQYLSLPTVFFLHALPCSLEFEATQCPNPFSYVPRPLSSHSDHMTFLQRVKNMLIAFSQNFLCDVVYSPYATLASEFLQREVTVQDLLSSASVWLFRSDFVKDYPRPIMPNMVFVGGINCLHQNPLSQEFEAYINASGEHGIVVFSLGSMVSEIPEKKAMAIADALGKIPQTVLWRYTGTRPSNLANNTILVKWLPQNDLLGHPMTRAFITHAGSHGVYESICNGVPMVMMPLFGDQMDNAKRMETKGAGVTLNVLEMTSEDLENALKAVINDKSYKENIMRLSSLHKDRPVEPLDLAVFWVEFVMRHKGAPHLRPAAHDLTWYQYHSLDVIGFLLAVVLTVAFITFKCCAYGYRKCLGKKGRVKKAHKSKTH
# test_summary: Inhibition of raloxifene glucuronidation by recombinant UGT1A1 Supersomes
# cond: human, recombinant UGT1A1 Supersomes, pH 7.5, probe raloxifene 50 μM (formation of glucuronide G2), Inhibition of raloxifene glucuronidation, G2, UGT1A1, G2; inhibitor 25 μM; raloxifene 50 μM, 250 μg/ml Supersomes, 1 mM UDPGA, 15 min
Supply the numeric figure in %, leaving out any unit text.

For CC/C(=C(/CC)c1ccc(O)cc1)c1ccc(O)cc1 [Diethylstilbestrol, reference compound] , what is its reported activity at 15 min, 25 µM? 41

Moving on to the next molecule: O=C(O[C@@H]1Cc2c(O)cc(O)cc2O[C@H]1c1cc(O)c(O)c(O)c1)c1cc(O)c(O)c(O)c1 [Gallocatechin gallate] 54

Moving on to the next molecule: O=C(OC[C@H]1O[C@@H](OC(=O)c2cc(O)c(O)c(OC(=O)c3cc(O)c(O)c(O)c3)c2)[C@H](OC(=O)c2cc(O)c(O)c(OC(=O)c3cc(O)c(O)c(O)c3)c2)[C@@H](OC(=O)c2cc(O)c(O)c(OC(=O)c3cc(O)c(O)c(O)c3)c2)[C@@H]1OC(=O)c1cc(O)c(O)c(OC(=O)c2cc(O)c(O)c(O)c2)c1)c1cc(O)c(O)c(OC(=O)c2cc(O)c(O)c(O)c2)c1 [Tannic acid] 8

Moving on to the next molecule: CCCCCCCCOC(=O)c1cc(O)c(O)c(O)c1 [Octyl gallate] 51

###

# test_target: UGT1A9 (Homo sapiens, UniProt O60656)
# Sequence (O60656 26-530): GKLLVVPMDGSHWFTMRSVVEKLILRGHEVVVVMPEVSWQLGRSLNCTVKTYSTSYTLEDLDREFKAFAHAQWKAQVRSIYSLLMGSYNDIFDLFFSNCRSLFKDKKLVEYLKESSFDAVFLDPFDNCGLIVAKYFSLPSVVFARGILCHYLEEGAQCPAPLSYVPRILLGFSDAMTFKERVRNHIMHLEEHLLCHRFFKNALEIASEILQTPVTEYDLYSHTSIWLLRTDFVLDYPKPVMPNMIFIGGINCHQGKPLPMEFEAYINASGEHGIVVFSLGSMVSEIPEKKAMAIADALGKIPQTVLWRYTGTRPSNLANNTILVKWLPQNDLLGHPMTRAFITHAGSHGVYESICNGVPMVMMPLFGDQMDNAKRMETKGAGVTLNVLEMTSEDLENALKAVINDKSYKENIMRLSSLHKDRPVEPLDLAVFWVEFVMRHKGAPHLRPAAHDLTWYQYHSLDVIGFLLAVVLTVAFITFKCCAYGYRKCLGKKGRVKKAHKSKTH
# test_summary: Inhibition of raloxifene glucuronidation by recombinant UGT1A9 Supersomes
# cond: human, Supersomes with recombinant human UGT1A9, pH 7.5, probe raloxifene 50 μM, formation of glucuronide G1, % of control metabolism, raloxifene G1, UGT1A9; inhibitor 2 μM
readout_name: activity at 15 min, 2 μM (%)
Supply the numeric figure in %, leaving out any unit text.

For CC/C(=C(/CC)c1ccc(O)cc1)c1ccc(O)cc1 [Diethylstilbestrol, reference compound] , what is its reported activity at 15 min, 2 μM? 90

###

# test_target: UGT1A10 (Homo sapiens, UniProt Q9HAW8)
# Sequence (Q9HAW8 26-530): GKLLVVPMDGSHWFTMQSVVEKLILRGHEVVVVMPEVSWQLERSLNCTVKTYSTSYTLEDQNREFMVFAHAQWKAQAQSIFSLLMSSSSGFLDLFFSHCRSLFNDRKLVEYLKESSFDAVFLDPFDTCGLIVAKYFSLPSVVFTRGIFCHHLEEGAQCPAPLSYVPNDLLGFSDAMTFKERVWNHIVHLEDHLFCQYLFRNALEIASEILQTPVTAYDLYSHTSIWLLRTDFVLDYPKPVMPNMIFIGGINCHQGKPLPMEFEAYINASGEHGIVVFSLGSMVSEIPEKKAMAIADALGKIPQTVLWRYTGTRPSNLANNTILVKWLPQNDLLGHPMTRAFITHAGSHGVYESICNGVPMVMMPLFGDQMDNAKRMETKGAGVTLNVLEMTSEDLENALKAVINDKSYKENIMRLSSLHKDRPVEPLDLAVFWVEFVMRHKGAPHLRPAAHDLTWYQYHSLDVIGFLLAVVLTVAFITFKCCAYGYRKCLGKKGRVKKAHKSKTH
# test_summary: in vitro
# cond: pH 7.5, % of control metabolism, raloxifene G1
readout_name: activity at 15 min, 50 µM (%)
Supply the numeric figure in %, leaving out any unit text.

Request - read-out activity at 15 min, 50 µM | tested on UGT1A10 (Homo sapiens, UniProt Q9HAW8) | compound `O=c1c(O)c(-c2ccc(O)c(O)c2)oc2cc(O)cc(O)c12` 55

Moving on to the next compound: CCCOC(=O)c1cc(O)c(O)c(O)c1 [Propyl gallate] 80

Moving on to the next compound: COc1cc(C2Oc3cc([C@H]4Oc5cc(O)cc(O)c5C(=O)[C@@H]4O)ccc3OC2CO)ccc1O (some centres unmarked) 56

Moving on to the next compound: `C=CCc1ccc(O)c(OC)c1` 85

Moving on to the next compound: O=C(O)c1cc(-c2ccc(F)cc2F)ccc1O [Diflunisal, reference compound] 90

Moving on to the next compound: COc1c(C)c2c(c(O)c1C/C=C(\C)CCC(=O)O)C(=O)OC2 [Mycophenolic acid, reference compound] 110

Moving on to the next compound: O=C(O)Cc1ccccc1Nc1c(Cl)cccc1Cl [Diclofenac, reference compound] 97

Moving on to the next compound: O=C(O[C@@H]1Cc2c(O)cc(O)cc2O[C@@H]1c1ccc(O)c(O)c1)c1cc(O)c(O)c(O)c1 [Epicatechin gallate] 54

###

# test_target: UniProtKB P22309
# test_summary: in vitro
# cond: pH 7.5, % of control metabolism, raloxifene G2
Please go through the items and note down their activity at 15 min, 25 µM.
Supply the numeric figure in %, leaving out any unit text.

For O=C(O[C@@H]1Cc2c(O)cc(O)cc2O[C@@H]1c1ccc(O)c(O)c1)c1cc(O)c(O)c(O)c1 [Epicatechin gallate] , what is its reported activity at 15 min, 25 µM? 43

Moving on to the next compound: COc1cc(C2Oc3cc([C@H]4Oc5cc(O)cc(O)c5C(=O)[C@@H]4O)ccc3OC2CO)ccc1O (stereo partly shown) 33

Moving on to the next compound: O=C(O)c1cc(-c2ccc(F)cc2F)ccc1O [Diflunisal, reference compound] 53

Moving on to the next compound: `O=c1c(O)c(-c2ccc(O)c(O)c2)oc2cc(O)cc(O)c12` 13

###

# test_target: UGT enzymes of human liver microsomes (Homo sapiens, UniProt P16662)
# Construct: residual metabolism (percentage of control), zidovudine glucuronidation; other: liver lot 062101; residual metabolism (percentage of control), zidovudine glucuronidation; residual metabolism (percentage of control)
# Sequence (P16662 whole entry): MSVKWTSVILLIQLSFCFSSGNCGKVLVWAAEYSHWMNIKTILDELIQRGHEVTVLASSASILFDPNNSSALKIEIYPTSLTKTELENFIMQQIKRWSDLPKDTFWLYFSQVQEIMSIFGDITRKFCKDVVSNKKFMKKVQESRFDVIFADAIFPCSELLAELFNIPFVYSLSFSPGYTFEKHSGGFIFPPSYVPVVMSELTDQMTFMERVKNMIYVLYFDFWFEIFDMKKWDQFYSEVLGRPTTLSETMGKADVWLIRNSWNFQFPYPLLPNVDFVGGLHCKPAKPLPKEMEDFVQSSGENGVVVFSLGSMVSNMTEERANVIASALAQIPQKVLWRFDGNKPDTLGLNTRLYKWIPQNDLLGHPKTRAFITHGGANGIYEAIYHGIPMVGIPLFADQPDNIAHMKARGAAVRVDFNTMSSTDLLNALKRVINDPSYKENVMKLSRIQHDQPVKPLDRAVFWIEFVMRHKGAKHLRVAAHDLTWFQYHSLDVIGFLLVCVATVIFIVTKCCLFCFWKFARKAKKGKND
# test_summary: Inhibition of zidovudine glucuronidation in human liver microsomes
# Assay type: biochemical
# cond: liver lot 062101; inhibitor 50 μM
Please go through the items and note down their residual metabolism (percentage of control), zidovudine glucuronidation.

For O=C(O[C@@H]1Cc2c(O)cc(O)cc2O[C@H]1c1cc(O)c(O)c(O)c1)c1cc(O)c(O)c(O)c1 [Gallocatechin gallate] , what is its reported residual metabolism (percentage of control), zidovudine glucuronidation? 66 (3) %

Moving on to the next compound: C[C@]12CC[C@@H]3c4ccc(O)cc4CC[C@H]3[C@@H]1CC[C@@H]2O [E2, 17-β-estradiol, reference compound] 50 (1) %

Moving on to the next compound: C#C[C@]1(O)CC[C@H]2[C@@H]3CCc4cc(O)ccc4[C@H]3CC[C@@]21C [17-α-Ethinylestradiol, 17-α-ethinylestradiol, reference compound] 54 (2) %

Moving on to the next compound: O=C(O[C@@H]1Cc2c(O)cc(O)cc2O[C@@H]1c1ccc(O)c(O)c1)c1cc(O)c(O)c(O)c1 [Epicatechin gallate] 80 (1) %

Moving on to the next compound: O=C(O[C@@H]1Cc2c(O)cc(O)cc2O[C@@H]1c1cc(O)c(O)c(O)c1)c1cc(O)c(O)c(O)c1 [Epigallocatechin gallate] 70 (1) %

###

# test_summary: in vivo
# cond: female, Sprague-Dawley, rat, po, 10 mg/kg, Raloxifene AUC0-24
readout_name: AUC(0-t)
Please answer in the form of a number followed by its unit of measurement.

For O=C(c1ccc(OCCN2CCCCC2)cc1)c1c(-c2ccc(O)cc2)sc2cc(O)ccc12 [Raloxifene, raloxifene, reference compound] , what is its reported AUC(0-t)? 114 ng·h/mL

###

# System: UGT enzymes of human liver microsomes
# Construct: percentage of control metabolism, 7-HFC glucuronidation; percentage of control metabolism, 7-HFC glucuronidation
# test_summary: Inhibition of 7-HFC glucuronidation in human liver microsomes
# Format: biochemical
# cond: inhibitor 200 μM
Please go through the items and note down their percentage of control metabolism, 7-HFC glucuronidation.

Request - read-out percentage of control metabolism, 7-HFC glucuronidation | tested on UGT enzymes of human liver microsomes | compound O=C(OC[C@H]1O[C@@H](OC(=O)c2cc(O)c(O)c(OC(=O)c3cc(O)c(O)c(O)c3)c2)[C@H](OC(=O)c2cc(O)c(O)c(OC(=O)c3cc(O)c(O)c(O)c3)c2)[C@@H](OC(=O)c2cc(O)c(O)c(OC(=O)c3cc(O)c(O)c(O)c3)c2)[C@@H]1OC(=O)c1cc(O)c(O)c(OC(=O)c2cc(O)c(O)c(O)c2)c1)c1cc(O)c(O)c(OC(=O)c2cc(O)c(O)c(O)c2)c1 [Tannic acid] 0 (0) %

Moving on to the next compound: CCCCCCCCCCCCCCCC(=O)OC[C@H](O)[C@H]1OC(=O)C(O)=C1O [Ascorbyl palmitate] 51 (1) %

###

# Test system: UGT enzymes of human liver microsomes
# test_summary: Inhibition of raloxifene glucuronidation (G1, G2) in human liver microsomes
# Assay type: biochemical
# cond: raloxifene 50 μM; inhibitor 50 μM
readout_name: % of control metabolism, raloxifene G1

For CC/C(=C(/CC)c1ccc(O)cc1)c1ccc(O)cc1 [Diethylstilbestrol, reference compound] , what is its reported % of control metabolism, raloxifene G1? 14 (1) %

Moving on to the next molecule: O=C(O[C@@H]1Cc2c(O)cc(O)cc2O[C@H]1c1cc(O)c(O)c(O)c1)c1cc(O)c(O)c(O)c1 [Gallocatechin gallate] 45 (2) %

Moving on to the next molecule: O=C(O[C@@H]1Cc2c(O)cc(O)cc2O[C@@H]1c1cc(O)c(O)c(O)c1)c1cc(O)c(O)c(O)c1 [Epigallocatechin gallate] 46 (2) %

Moving on to the next molecule: CCCCCCCCOC(=O)c1cc(O)c(O)c(O)c1 [Octyl gallate] 37 (2) %
